# System: antibodies in sera from SARS patients (sera 1a, 1b, 2, 6, 37, 62, London, SARS-yellow, SARS-green)
# Assay type: binding, human
Readout: Binding of serum 2 to looped/cyclic peptides of protein M of SARS-CoV Urbani

Example entries begin here.
| Sequence Text | Result |
| --- | --- |
| LVIGAVIIRGHLRMA | 0.8 |
| LWLLWPVTLACFVLA | 0.6 |
| PKEITVATSRTLSYY | 0.6 |
| PLMESELVIGAVIIR | 0.7 |

Now for a further sequence.
Query: If you can, please state the reported Binding of serum 2 to looped/cyclic peptides of protein M of SARS-CoV Urbani value of YRINWVTGGIAIAMA .
Result: 0.6

---

# Test system: rabbit serum obtained by immunizing a rabbit with the SARS-CoV strain Frankfurt 1
# Assay type: binding
# Set-up: unit not given here
Readout: Binding of a rabbit serum to linear peptides
Kindly provide the number alone.

Example entries begin here.
| Sequence Text | Number |
| --- | --- |
| MEAQFLYLYALIYFL | 0.1 |
| KLKEDYQIGGYSEDR | 0.1 |
| KCKSKNPLLYDANYF | 0.2 |

Query: If you can, please state the reported Binding of a rabbit serum to linear peptides value of VKPTVYVYSRVKNLN .
Result: 0.5

Query: If you can, please state the reported Binding of a rabbit serum to linear peptides value of KTMSLYMAISPKFTT .
Result: 0.3

Query: If you can, please state the reported Binding of a rabbit serum to linear peptides value of SLVKPTVYVYSRVKN .
Result: 0.3

Query: If you can, please state the reported Binding of a rabbit serum to linear peptides value of ASPASTVHATATIPL .
Result: 1.4

Query: If you can, please state the reported Binding of a rabbit serum to linear peptides value of HSSSLTSLLKTHRMC .
Result: 0.2

Query: If you can, please state the reported Binding of a rabbit serum to linear peptides value of RRRLLACLCKHKKVS .
Result: 0.5

Query: If you can, please state the reported Binding of a rabbit serum to linear peptides value of LQELLIQQWIQFMMS .
Result: 0.3

Query: If you can, please state the reported Binding of a rabbit serum to linear peptides value of KLVKDPPNVQIHTID .
Result: 0.1

---

Parameter Binding of a rabbit serum to linear peptides: see the listing below.
# Test system: rabbit serum obtained by immunizing a rabbit with the SARS-CoV strain Frankfurt 1
# Assay type: binding
# Set-up: unit not given here
Kindly provide the number alone.

Example entries begin here.
| Sequence Text | Number |
| --- | --- |
| ITVSQIQLSLLKVTA | 0.7 |
| ILRIGTQVLKTMSLY | 0.3 |
| TAQPVKIDNASPAST | 0.1 |
| EVYYQLESTQITTDT | 0.1 |
| SPKFTTSLSLHKLLQ | 0.3 |

Query: Lookup: Binding of a rabbit serum to linear peptides / rabbit serum obtained by immunizing a rabbit with the SARS-CoV strain Frankfurt 1 / TVYVYSRVKNLNSSE
Result: 0.8

Query: Lookup: Binding of a rabbit serum to linear peptides / rabbit serum obtained by immunizing a rabbit with the SARS-CoV strain Frankfurt 1 / ISPKFTTSLSLHKLL
Result: 0.3

Query: Lookup: Binding of a rabbit serum to linear peptides / rabbit serum obtained by immunizing a rabbit with the SARS-CoV strain Frankfurt 1 / PTVYVYSRVKNLNSS
Result: 0.7

Query: Lookup: Binding of a rabbit serum to linear peptides / rabbit serum obtained by immunizing a rabbit with the SARS-CoV strain Frankfurt 1 / SSSLTSLLKTHRMCK
Result: 0.3

---

# System: recombinant human anti-SARS-CoV antibody 03-018
# Format: binding
# Design: unit not given here
Readout: Binding of antibody 03-018 to looped/cyclic peptides of the N protein of SARS-CoV Urbani
Kindly provide the number alone.

Example entries begin here.
| Sequence Text | Number |
| --- | --- |
| ALALLLLDRLNQLES | 0.3 |
| PKKDKKKKTDEAQPL | 0.2 |
| VRGGDGKMKELSPRW | 0.2 |
| PNNNAATVLQLPQGT | 0.3 |

Now for a further sequence.
Query: If you can, please state the reported Binding of antibody 03-018 to looped/cyclic peptides of the N protein of SARS-CoV Urbani value of TDSTDNNQNGGRNGA .
Result: 0.2

---

# System: antibodies in sera from SARS patients (sera 1a, 1b, 2, 6, 37, 62, London, SARS-yellow, SARS-green)
# Format: binding, human
Parameter Binding of serum London to linear peptides of protein X1 of SARS-CoV Urbani: see the listing below.
Kindly provide the number alone.

| Sequence Text | Number |
| --- | --- |
| VTIYSHLLLVAAGME | 0.3 |
| NLLLLFVTIYSHLLL | 0.2 |
| ALIYFLQCINACRII | 0.3 |

Query: If you can, please state the reported Binding of serum London to linear peptides of protein X1 of SARS-CoV Urbani value of ALYKGFQFICNLLLL .
Result: 0.2

Query: If you can, please state the reported Binding of serum London to linear peptides of protein X1 of SARS-CoV Urbani value of LLLLFVTIYSHLLLV .
Result: 0.2

Query: If you can, please state the reported Binding of serum London to linear peptides of protein X1 of SARS-CoV Urbani value of GFQFICNLLLLFVTI .
Result: 0.3

---

Parameter Binding of serum 37 to linear peptides of protein X1 of SARS-CoV Urbani: see the listing below.
# Test system: antibodies in sera from SARS patients (sera 1a, 1b, 2, 6, 37, 62, London, SARS-yellow, SARS-green)
# Format: binding, human
# Design: unit not given here
Kindly provide the number alone.

Example entries begin here.
| Sequence Text | Number |
| --- | --- |
| PYNSVTDTIVVTEGD | 0.5 |
| IYSHLLLVAAGMEAQ | 0.6 |
| VAAGMEAQFLYLYAL | 0.5 |
| GVAFLAVFQSATKII | 0.6 |
| LVAAGMEAQFLYLYA | 0.6 |

Query: If you can, please state the reported Binding of serum 37 to linear peptides of protein X1 of SARS-CoV Urbani value of AVFQSATKIIALNKR .
Result: 0.7

---

# System: antibodies in sera from SARS patients (sera 1a, 1b, 2, 6, 37, 62, London, SARS-yellow, SARS-green)
# Format: binding, human
Readout: Binding of serum SARS-green to linear peptide (PEPSCAN-ELISA)
Kindly provide the number alone.

Example entries begin here.
| Sequence Text | Number |
| --- | --- |
| SQASSRSSSRSRGNS | 0.2 |
| GDQDLIRQGTDYKHW | 0.5 |
| LPKGFYAEGSRGGSQ | 0.2 |
| KQYNVTQAFGRRGPE | 0.3 |
| GGETALALLLLDRLN | 0.4 |

Query: If you can, please state the reported Binding of serum SARS-green to linear peptide (PEPSCAN-ELISA) value of TKQYNVTQAFGRRGP .
Result: 0.5

Query: If you can, please state the reported Binding of serum SARS-green to linear peptide (PEPSCAN-ELISA) value of NQLESKVSGKGQQQQ .
Result: 0.5

Query: If you can, please state the reported Binding of serum SARS-green to linear peptide (PEPSCAN-ELISA) value of SSSRSRGNSRNSTPG .
Result: 0.2

Query: If you can, please state the reported Binding of serum SARS-green to linear peptide (PEPSCAN-ELISA) value of DRLNQLESKVSGKGQ .
Result: 0.5

Query: If you can, please state the reported Binding of serum SARS-green to linear peptide (PEPSCAN-ELISA) value of AEGSRGGSQASSRSS .
Result: 0.4

---

# Tested on: antibodies in sera from SARS patients (sera 1a, 1b, 2, 6, 37, 62, London, SARS-yellow, SARS-green)
# Format: binding, human
# Parameters: unit not given here
Binding of serum 6 to linear peptides of protein X1 of SARS-CoV Urbani less than 0.5 is 1 (yes); Binding of serum 6 to linear peptides of protein X1 of SARS-CoV Urbani greater than or equal to 0.5 is 0 (no).

Examples with answers:
| Sequence Text | Assigned Label |
| --- | --- |
| CKSKNPLLYDANYFV | 0 (no) |
| ATATIPLQASLPFGW | 0 (no) |
| LAVFQSATKIIALNK | 0 (no) |
| MRFFTLGSITAQPVK | 0 (no) |
| TIVVTEGDGISTPKL | 0 (no) |

Query: Is Binding of serum 6 to linear peptides of protein X1 of SARS-CoV Urbani of IYSHLLLVAAGMEAQ strictly below 0.5?
Result: 1 (yes)

Query: Is Binding of serum 6 to linear peptides of protein X1 of SARS-CoV Urbani of CNLLLLFVTIYSHLL strictly below 0.5?
Result: 1 (yes)

Query: Is Binding of serum 6 to linear peptides of protein X1 of SARS-CoV Urbani of AVFQSATKIIALNKR strictly below 0.5?
Result: 0 (no)

Query: Is Binding of serum 6 to linear peptides of protein X1 of SARS-CoV Urbani of FGWLVIGVAFLAVFQ strictly below 0.5?
Result: 1 (yes)
